# protocol_description: AUC (0 to infinity) in ICR mouse at 1 mg/kg, iv by LC-MS/MS method
# Assay type: ADME, organism-based
# Parameters: dose 1 mg/kg, route intravenous, time infinity
# condition_info: in vivo
endpoint_name: AUC(0-inf) (µg·h/mL)
Write the number in µg·h/mL without appending the unit.

If you can, please state the reported AUC(0-inf) value of C=CC(=O)Nc1cccc(-n2c(=O)c(=O)n(C(C)C)c3cnc(Nc4ccc(N5CCN(C)CC5)cc4OC)nc32)c1 .
0.143

----------
# protocol_description: Thermodynamic solubility of the compound in 0.1M PBS buffer at pH 7.4 by UV-visible spectrophotometry
# Type: physicochemical
# condition_info: read-out: Therm_solubility
Exercise: state measured solubility thermodynamic for each of the molecules provided.

Return reported solubility thermodynamic; argument: C=CC(=O)Nc1cccc(-n2c(=O)c(=O)n(C(C)C)c3cnc(Nc4ccc(N(C)CCN(C)C)cc4OC)nc32)c1
1620 µg/mL

Reported solubility thermodynamic for C=CC(=O)Nc1cccc(-n2c(=O)c(=O)n(C(C)C)c3cnc(Nc4ccc(N5CCC(N6CCN(C)CC6)CC5)cc4OC)nc32)c1 : what is it?
109 µg/mL

Would you mind telling me what solubility thermodynamic value was observed for C=CC(=O)Nc1cccc(-n2c(=O)c(=O)n(C(C)C)c3cnc(Nc4ccc(N5CCN(C)CC5)c(C)c4)nc32)c1 ?
190 µg/mL

Could you share which solubility thermodynamic value was measured for C=CC(=O)Nc1cccc(-n2c(=O)c(=O)n(C(C)C)c3cnc(Nc4ccc(OCCN(C)C)cc4OC)nc32)c1 ?
437 µg/mL

Requested field: solubility thermodynamic. Item: C=CC(=O)Nc1cccc(-n2c(=O)c(=O)n(C)c3cnc(Nc4ccc(N5CCN(C)CC5)cc4OC)nc32)c1
392 µg/mL

What value of solubility thermodynamic has been reported for the following molecule? C=CC(=O)Nc1cccc(-n2c(=O)c(=O)n(C(C)C)c3cnc(Nc4ccc(N5CCN(C)CC5)cc4OC)nc32)c1
41 µg/mL

Request the reported solubility thermodynamic associated with C=CC(=O)Nc1cccc(-n2c(=O)c(=O)n(CC)c3cnc(Nc4ccc(N5CCN(C)CC5)cc4OC)nc32)c1
< 10 µg/mL

Look up solubility thermodynamic: C=CC(=O)Nc1cccc(-n2c(=O)c(=O)[nH]c3cnc(Nc4ccc(N5CCN(C)CC5)cc4OC)nc32)c1
839 µg/mL

Look at this molecule and give its reported solubility thermodynamic. C=CC(=O)Nc1cccc(-n2c(=O)c(=O)n(C(C)C)c3cnc(Nc4ccc(N5CCN(C)CC5)c(OC)c4)nc32)c1
298 µg/mL

For the molecule C=CC(=O)Nc1cccc(-n2c(=O)c(=O)n(CCC)c3cnc(Nc4ccc(N5CCN(C)CC5)cc4OC)nc32)c1 , what solubility thermodynamic is on record?
< 10 µg/mL
